Where these numbers come from: paper PMC6271079

- System: HepG2, HT-29, Hela and BGC-823
- Test: MTT cytotoxicity, summary statements over the cell lines
- Assay type: cell-based, human
- Condition Label: Homo sapiens, HepG2, HT-29, Hela and BGC-823, MTT; read-out: IC50, cytotoxicity on all four cancer cell lines
pIC50: −log10 of the molar value.
For each of the compounds below, state its pIC50.

Form field: pIC50 recorded for Cc1nc(C)c(COC(=O)[C@]23CCC(C)(C)CC2C2=CCC4[C@@]5(C)CC[C@H](OC(=O)[C@@H](N)CO)C(C)(C)C5CC[C@@]4(C)[C@]2(C)CC3)nc1C (stereo partly drawn) [Compound 6l] with HepG2, HT-29, Hela and BGC-823 (enter value) > 5.10

Cool, now Cc1nc(C)c(COC(=O)[C@]23CCC(C)(C)CC2C2=CCC4[C@@]5(C)CC[C@H](OC(=O)[C@@H]6CCCN6)C(C)(C)C5CC[C@@]4(C)[C@]2(C)CC3)nc1C (stereo partly drawn) [Compound 6c] > 5.10

How about Cc1nc(C)c(COC(=O)[C@]23CCC(C)(C)CC2C2=CCC4[C@@]5(C)CC[C@H](OC(=O)[C@H](C)N)C(C)(C)C5CC[C@@]4(C)[C@]2(C)CC3)nc1C (stereo partly drawn) [Compound 6b] ? > 5.10
